System: Clostridium tertium
Assay: Antibacterial activity against beta-lactamase producing Clostridium tertium by CLSI agar dilution method
Type: functional
Could you mark each record fulfilled if its MIC50 falls strictly under 0.2 µg/mL, and not fulfilled if it equals or exceeds it?

## Input Could you please tell me whether MIC50 recorded for C[C@@H](O)[C@H]1C(=O)N2C(C(=O)O)=C(S[C@@H]3CN[C@H](C(=O)Nc4cccc(C(=O)O)c4)C3)[C@H](C)[C@H]12 is less than 0.2 µg/mL?
## Output fulfilled

## Input Could you please tell me whether MIC50 recorded for CCC[C@@H]1C[C@@H](C(=O)N[C@@H]([C@H]2O[C@H](SC)[C@H](O)[C@@H](O)[C@H]2O)[C@H](C)Cl)N(C)C1 is less than 0.2 µg/mL?
## Output not fulfilled

## Input Could you please tell me whether MIC50 recorded for CO[C@@]1(NC(=O)CSCC#N)C(=O)N2C(C(=O)O)=C(CSc3nnnn3C)CS[C@@H]21 is less than 0.2 µg/mL?
## Output not fulfilled

## Input Could you please tell me whether MIC50 recorded for C[C@H]1COc2c(N3CCN(C)CC3)c(F)cc3c(=O)c(C(=O)O)cn1c23.C[C@H]1COc2c(N3CCN(C)CC3)c(F)cc3c(=O)c(C(=O)O)cn1c23.O is less than 0.2 µg/mL?
## Output not fulfilled

## Input Could you please tell me whether MIC50 recorded for O=C(N[C@H](CO)[C@H](O)c1ccc([N+](=O)[O-])cc1)C(Cl)Cl is less than 0.2 µg/mL?
## Output not fulfilled

## Input Could you please tell me whether MIC50 recorded for C[C@@H](O)[C@H]1C(=O)N2C(C(=O)O)=C(SCCNC=N)C[C@H]12 [IMIPENEM ANHYDROUS] is less than 0.2 µg/mL?
## Output not fulfilled

## Input Could you please tell me whether MIC50 recorded for Cc1ncc([N+](=O)[O-])n1CCO is less than 0.2 µg/mL?
## Output not fulfilled

## Input Could you please tell me whether MIC50 recorded for CCN1CCN(C(=O)N[C@@H](C(=O)N[C@@H]2C(=O)N3[C@@H]2SC(C)(C)[C@@H]3C(=O)O)c2ccccc2)C(=O)C1=O is less than 0.2 µg/mL?
## Output not fulfilled

## Input Could you please tell me whether MIC50 recorded for C[C@@H](O)[C@H]1C(=O)N2C(C(=O)O)=C(S[C@@H]3CN[C@H](C(=O)N(C)C)C3)[C@H](C)[C@H]12 is less than 0.2 µg/mL?
## Output fulfilled

## Input Could you please tell me whether MIC50 recorded for C[C@@H](O)[C@H]1C(=O)N2C(C(=O)O)=C(S[C@@H]3CN[C@H](CNS(N)(=O)=O)C3)[C@H](C)[C@H]12 is less than 0.2 µg/mL?
## Output fulfilled

## Input Could you please tell me whether MIC50 recorded for CC1(C)S[C@@H]2[C@H](NC(=O)Cc3ccccc3)C(=O)N2[C@H]1C(=O)O is less than 0.2 µg/mL?
## Output not fulfilled

###

System: Fusobacterium mortiferum
Assay: Antibacterial activity against Fusobacterium mortiferum by CLSI agar dilution method
Format: functional
Could you mark each record Condition met if its MIC50 falls strictly under 0.5 µg/mL, and Condition not met if it equals or exceeds it?

## Input Could you please tell me whether MIC50 recorded for CCC[C@@H]1C[C@@H](C(=O)N[C@@H]([C@H]2O[C@H](SC)[C@H](O)[C@@H](O)[C@H]2O)[C@H](C)Cl)N(C)C1 is less than 0.5 µg/mL?
## Output Condition met

## Input Could you please tell me whether MIC50 recorded for C[C@@H](O)[C@H]1C(=O)N2C(C(=O)O)=C(S[C@@H]3CN[C@H](CNS(N)(=O)=O)C3)[C@H](C)[C@H]12 is less than 0.5 µg/mL?
## Output Condition met

## Input Could you please tell me whether MIC50 recorded for C[C@@H](O)[C@H]1C(=O)N2C(C(=O)O)=C(S[C@@H]3CN[C@H](C(=O)Nc4cccc(C(=O)O)c4)C3)[C@H](C)[C@H]12 is less than 0.5 µg/mL?
## Output Condition met

## Input Could you please tell me whether MIC50 recorded for CO[C@@]1(NC(=O)CSCC#N)C(=O)N2C(C(=O)O)=C(CSc3nnnn3C)CS[C@@H]21 is less than 0.5 µg/mL?
## Output Condition not met

## Input Could you please tell me whether MIC50 recorded for O=C(N[C@H](CO)[C@H](O)c1ccc([N+](=O)[O-])cc1)C(Cl)Cl is less than 0.5 µg/mL?
## Output Condition not met

## Input Could you please tell me whether MIC50 recorded for CCN1CCN(C(=O)N[C@@H](C(=O)N[C@@H]2C(=O)N3[C@@H]2SC(C)(C)[C@@H]3C(=O)O)c2ccccc2)C(=O)C1=O is less than 0.5 µg/mL?
## Output Condition not met

## Input Could you please tell me whether MIC50 recorded for C[C@H]1COc2c(N3CCN(C)CC3)c(F)cc3c(=O)c(C(=O)O)cn1c23.C[C@H]1COc2c(N3CCN(C)CC3)c(F)cc3c(=O)c(C(=O)O)cn1c23.O is less than 0.5 µg/mL?
## Output Condition not met

## Input Could you please tell me whether MIC50 recorded for CC1(C)S[C@@H]2[C@H](NC(=O)Cc3ccccc3)C(=O)N2[C@H]1C(=O)O is less than 0.5 µg/mL?
## Output Condition met

## Input Could you please tell me whether MIC50 recorded for C[C@@H](O)[C@H]1C(=O)N2C(C(=O)O)=C(S[C@@H]3CN[C@H](C(=O)N(C)C)C3)[C@H](C)[C@H]12 is less than 0.5 µg/mL?
## Output Condition met

###

System: Peptostreptococcus anaerobius
Test: Antibacterial activity against beta-lactamase producing Peptostreptococcus anaerobius assessed as susceptible isolates by CLSI agar dilution method
Assay type: functional
measured_attribute: Activity (%)
Give your result in % as a bare value.

## Input Which value of Activity has been reported for Cc1ncc([N+](=O)[O-])n1CCO in the records?
## Output 88

## Input Which value of Activity has been reported for CCC[C@@H]1C[C@@H](C(=O)N[C@@H]([C@H]2O[C@H](SC)[C@H](O)[C@@H](O)[C@H]2O)[C@H](C)Cl)N(C)C1 in the records?
## Output 88

## Input Which value of Activity has been reported for C[C@@H](O)[C@H]1C(=O)N2C(C(=O)O)=C(S[C@@H]3CN[C@H](CNS(N)(=O)=O)C3)[C@H](C)[C@H]12 in the records?
## Output 100

## Input Which value of Activity has been reported for CO[C@@]1(NC(=O)CSCC#N)C(=O)N2C(C(=O)O)=C(CSc3nnnn3C)CS[C@@H]21 in the records?
## Output 97

## Input Which value of Activity has been reported for C[C@@H](O)[C@H]1C(=O)N2C(C(=O)O)=C(S[C@@H]3CN[C@H](C(=O)Nc4cccc(C(=O)O)c4)C3)[C@H](C)[C@H]12 in the records?
## Output 100

## Input Which value of Activity has been reported for O=C(N[C@H](CO)[C@H](O)c1ccc([N+](=O)[O-])cc1)C(Cl)Cl in the records?
## Output 94

## Input Which value of Activity has been reported for C[C@@H](O)[C@H]1C(=O)N2C(C(=O)O)=C(SCCNC=N)C[C@H]12 [IMIPENEM ANHYDROUS] in the records?
## Output 100

## Input Which value of Activity has been reported for CCN1CCN(C(=O)N[C@@H](C(=O)N[C@@H]2C(=O)N3[C@@H]2SC(C)(C)[C@@H]3C(=O)O)c2ccccc2)C(=O)C1=O in the records?
## Output 97

## Input Which value of Activity has been reported for C[C@@H](O)[C@H]1C(=O)N2C(C(=O)O)=C(S[C@@H]3CN[C@H](C(=O)N(C)C)C3)[C@H](C)[C@H]12 in the records?
## Output 100

###

System: Bacteroides uniformis
Test: Antibacterial activity against beta-lactamase producing Bacteroides uniformis by CLSI agar dilution method
Format: functional
measured_attribute: MIC90 (µg/mL)
Give your result in µg/mL as a bare value.

## Input Which value of MIC90 has been reported for O=C(N[C@H](CO)[C@H](O)c1ccc([N+](=O)[O-])cc1)C(Cl)Cl [CHLORAMPHENICOL] in the records?
## Output 8

## Input Which value of MIC90 has been reported for C[C@@H](O)[C@H]1C(=O)N2C(C(=O)O)=C(S[C@@H]3CN[C@H](C(=O)N(C)C)C3)[C@H](C)[C@H]12 [MEROPENEM] in the records?
## Output 2

## Input Which value of MIC90 has been reported for C[C@@H](O)[C@H]1C(=O)N2C(C(=O)O)=C(SCCNC=N)C[C@H]12 [IMIPENEM ANHYDROUS] in the records?
## Output 4

## Input Which value of MIC90 has been reported for C[C@@H](O)[C@H]1C(=O)N2C(C(=O)O)=C(S[C@@H]3CN[C@H](C(=O)Nc4cccc(C(=O)O)c4)C3)[C@H](C)[C@H]12 in the records?
## Output 2
